assay_details: Mouse Oral Pharmacokinetic Study
Assay type: in vivo
conditions: mouse, brain/plasma; male CD1 mice, oral gavage 10 mg/kg, 4 h; read-out: Cbrain/Cplasma
Please assign 0.0 whenever Kp at 4 h is at or above 1, and 1.0 whenever it is below.

Solved cases (5 shown):
>  <compound>
CNC1CC2(C1)CC(Oc1cc(F)c(-c3c(Cl)nc4ncnn4c3N[C@@H](C)C(F)(F)F)c(F)c1)C2 (stereo partly shown) [Example 11]

>  <discrete_label>
1.0

$$$$
>  <compound>
C[C@@H](Nc1c(-c2c(F)cc(C#C[C@@H]3[C@H]4CN(C)C[C@@H]34)cc2F)c(Cl)nc2ncnn12)C1CCC1 [Example 46]

>  <discrete_label>
0.0

$$$$
>  <compound>
CC(C)[C@@H](C)Nc1c(-c2c(F)cc(F)cc2F)c(Cl)nc2ncnn12 [Intermediate 4, reference compound]

>  <discrete_label>
1.0

$$$$
>  <compound>
CN1C[C@@H]2[C@@H](/C=C/c3cc(F)c(-c4c(Cl)nc5ncnn5c4NCC(F)(F)F)c(F)c3)[C@@H]2C1 [Example 58]

>  <discrete_label>
0.0

$$$$
>  <compound>
C[C@H](Nc1c(-c2c(F)cc(OCC3[C@H]4CN(C)C[C@@H]34)cc2F)c(Cl)nc2ncnn12)C(F)(F)F (stereo partly shown) [Example 25]

>  <discrete_label>
0.0

$$$$

Query: Record C[C@H](Nc1c(-c2c(F)cc(C#CC3[C@H]4CN(C)C[C@@H]34)cc2F)c(Cl)nc2ncnn12)C(F)(F)F (stereo partly shown) [Example 48] : is its Kp at 4 h strictly below 1?
Reply: 0.0

Query: State whether 1 exceeds Kp at 4 h recorded for CC(C)[C@@H](C)Nc1c(-c2c(F)cc(C#C[C@@H]3[C@H]4CN(C)C[C@@H]34)cc2F)c(Cl)nc2ncnn12 [Example 55] .
Reply: 0.0

Query: Please determine if C[C@H](Nc1c(-c2c(F)cc(OCC3[C@H]4CNC[C@@H]34)cc2F)c(Cl)nc2ncnn12)C(F)(F)F (stereo partly shown) [Example 24] is below 1 in terms of Kp at 4 h.
Reply: 1.0

Query: Strictly below 1 in Kp at 4 h? Cc1nc2ncnn2c(N[C@H](C)C(C)C)c1-c1c(F)cc(OCC2[C@H]3CN(C)C[C@@H]23)cc1F (stereo partly shown) [Example 57]
Reply: 1.0

Query: Is 1 strictly greater than the compound's reported Kp at 4 h? compound: Cc1nc2ncnn2c(NCC(F)(F)F)c1-c1c(F)cc(OC[C@@H]2[C@H]3CN(C)C[C@@H]23)cc1F [Example 60]
Reply: 0.0

----------
assay_details: Mouse Oral Pharmacokinetic Study
Type: in vivo
conditions: mouse; male CD1 mice, oral gavage 10 mg/kg, plasma, 0-4 h; read-out: AUC0-4h
property: AUC(0-t) (ng·h/mL)
// return numeric value only (unit: ng·h/mL, not printed)

Field: example entries. Status: answers known.
>  <compound>
CN1C[C@@H]2[C@@H](/C=C/c3cc(F)c(-c4c(Cl)nc5ncnn5c4NCC(F)(F)F)c(F)c3)[C@@H]2C1 [Example 58]

>  <AUC(0-t) / ng·h/mL>
368

$$$$
>  <compound>
CC(C)[C@@H](C)Nc1c(-c2c(F)cc(C#C[C@@H]3[C@H]4CN(C)C[C@@H]34)cc2F)c(Cl)nc2ncnn12 [Example 55]

>  <AUC(0-t) / ng·h/mL>
1450

$$$$

Query: If you can, please state the reported AUC(0-t) value of CC(C)[C@@H](C)Nc1c(-c2c(F)cc(F)cc2F)c(Cl)nc2ncnn12 [Intermediate 4, reference compound] .
Reply: 57

Query: // query AUC(0-t) value for entry C[C@H](Nc1c(-c2c(F)cc(OCC3[C@H]4CN(C)C[C@@H]34)cc2F)c(Cl)nc2ncnn12)C(F)(F)F (stereo partly shown) [Example 25]
Reply: 939

Query: AUC(0-t) for Cc1nc2ncnn2c(N[C@H](C)C(C)C)c1-c1c(F)cc(OCC2[C@H]3CN(C)C[C@@H]23)cc1F (stereo partly shown) [Example 57] ?
Reply: 525

Query: I would be grateful if you could share the reported AUC(0-t) for Cc1nc2ncnn2c(NCC(F)(F)F)c1-c1c(F)cc(OC[C@@H]2[C@H]3CN(C)C[C@@H]23)cc1F [Example 60] .
Reply: 696

Query: Record request: AUC(0-t) value, item CNC1CC2(C1)CC(Oc1cc(F)c(-c3c(Cl)nc4ncnn4c3N[C@@H](C)C(F)(F)F)c(F)c1)C2 (stereo partly shown) [Example 11]
Reply: 11200

----------
assay_details: Mouse Oral Pharmacokinetic Study
Type: in vivo
conditions: mouse; male CD1 mice, oral gavage 10 mg/kg, plasma at 4 h; read-out: Cpasma@4h
// values below are reported log10 concentration at 4 h
Use the decimal logarithm of concentration at 4 h (ng/mL).

Solved entries:
>  <compound>
Cc1nc2ncnn2c(NCC(F)(F)F)c1-c1c(F)cc(OC[C@@H]2[C@H]3CN(C)C[C@@H]23)cc1F

>  <log10 concentration at 4 h>
1.67

$$$$
>  <compound>
C[C@@H](Nc1c(-c2c(F)cc(C#C[C@@H]3[C@H]4CN(C)C[C@@H]34)cc2F)c(Cl)nc2ncnn12)C1CCC1

>  <log10 concentration at 4 h>
2.51

$$$$
>  <compound>
CC(C)[C@@H](C)Nc1c(-c2c(F)cc(C#C[C@@H]3[C@H]4CN(C)C[C@@H]34)cc2F)c(Cl)nc2ncnn12

>  <log10 concentration at 4 h>
2.49

$$$$

We next turn to a different compound, shown below.
Query: If you can, please state the reported log10 concentration at 4 h value of Cc1nc2ncnn2c(N[C@H](C)C(C)C)c1-c1c(F)cc(OCC2[C@H]3CN(C)C[C@@H]23)cc1F (stereo partly shown) .
Reply: 2.03

----------
assay_details: Mouse Oral Pharmacokinetic Study
Format: in vivo
conditions: mouse; male CD1 mice, oral gavage 10 mg/kg, plasma, 0-4 h; read-out: AUC0-4h
property: AUC(0-t)
Note: a bare number is incomplete; add the unit.

# count of solved cases: 2
>  <compound>
C[C@@H](Nc1c(-c2c(F)cc(C#C[C@@H]3[C@H]4CN(C)C[C@@H]34)cc2F)c(Cl)nc2ncnn12)C1CCC1 [Example 46]

>  <AUC(0-t)>
1600 ng·h/mL

$$$$
>  <compound>
C[C@H](Nc1c(-c2c(F)cc(C#CC3[C@H]4CN(C)C[C@@H]34)cc2F)c(Cl)nc2ncnn12)C(F)(F)F (stereo partly drawn) [Example 48]

>  <AUC(0-t)>
1810 ng·h/mL

$$$$

Here is the next item to consider.
Query: So what does the record say about AUC(0-t) for C[C@H](Nc1c(-c2c(F)cc(OCC3[C@H]4CNC[C@@H]34)cc2F)c(Cl)nc2ncnn12)C(F)(F)F (stereo partly drawn) [Example 24] ?
Reply: 5960 ng·h/mL

----------
assay_details: Mouse Oral Pharmacokinetic Study
Assay type: in vivo
conditions: mouse; male CD1 mice, oral gavage 10 mg/kg, plasma; read-out: Tmax
property: Tmax (min)
Quick reminder: number only, in min, skip the unit.

>  <molecule>
Cc1nc2ncnn2c(N[C@H](C)C(C)C)c1-c1c(F)cc(OCC2[C@H]3CN(C)C[C@@H]23)cc1F (stereo partly drawn)

>  <units_text>
min

>  <Tmax>
30

$$$$

Query: Consider the molecule "C[C@@H](Nc1c(-c2c(F)cc(C#C[C@@H]3[C@H]4CN(C)C[C@@H]34)cc2F)c(Cl)nc2ncnn12)C1CCC1" and give its measured Tmax.
Reply: 30

Query: What does the data say about its Tmax? Entry: "CC(C)[C@@H](C)Nc1c(-c2c(F)cc(C#C[C@@H]3[C@H]4CN(C)C[C@@H]34)cc2F)c(Cl)nc2ncnn12"
Reply: 30

Query: # lookup: Tmax of CNC1CC2(C1)CC(Oc1cc(F)c(-c3c(Cl)nc4ncnn4c3N[C@@H](C)C(F)(F)F)c(F)c1)C2 (stereo partly drawn)
Reply: 45

Query: Requested read-out: Tmax. Entry: C[C@H](Nc1c(-c2c(F)cc(OCC3[C@H]4CN(C)C[C@@H]34)cc2F)c(Cl)nc2ncnn12)C(F)(F)F (stereo partly drawn)
Reply: 45

Query: For C[C@H](Nc1c(-c2c(F)cc(C#CC3[C@H]4CN(C)C[C@@H]34)cc2F)c(Cl)nc2ncnn12)C(F)(F)F (stereo partly drawn) , what is its reported Tmax?
Reply: 45

----------
assay_details: Mouse Oral Pharmacokinetic Study
Format: in vivo
conditions: mouse; male CD1 mice, oral gavage 10 mg/kg, plasma; read-out: Cmax
Reported Cmax values for a set of molecules
The figure you give is taken to be in ng/mL; do not add the unit.

Example entries and their recorded answers appear below.
>  <molecule>
CNC1CC2(C1)CC(Oc1cc(F)c(-c3c(Cl)nc4ncnn4c3N[C@@H](C)C(F)(F)F)c(F)c1)C2 (stereo partly drawn)

>  <units_text>
ng/mL

>  <Cmax>
4140

$$$$
>  <molecule>
CC(C)[C@@H](C)Nc1c(-c2c(F)cc(F)cc2F)c(Cl)nc2ncnn12 [Intermediate 4, reference compound]

>  <units_text>
ng/mL

>  <Cmax>
49

$$$$
>  <molecule>
C[C@H](Nc1c(-c2c(F)cc(OCC3[C@H]4CN(C)C[C@@H]34)cc2F)c(Cl)nc2ncnn12)C(F)(F)F (stereo partly drawn)

>  <units_text>
ng/mL

>  <Cmax>
399

$$$$
>  <molecule>
C[C@H](Nc1c(-c2c(F)cc(C#CC3[C@H]4CN(C)C[C@@H]34)cc2F)c(Cl)nc2ncnn12)C(F)(F)F (stereo partly drawn)

>  <units_text>
ng/mL

>  <Cmax>
591

$$$$
>  <molecule>
CN1C[C@@H]2[C@@H](/C=C/c3cc(F)c(-c4c(Cl)nc5ncnn5c4NCC(F)(F)F)c(F)c3)[C@@H]2C1

>  <units_text>
ng/mL

>  <Cmax>
115

$$$$

Next up:
Query: Item "CC(C)[C@@H](C)Nc1c(-c2c(F)cc(C#C[C@@H]3[C@H]4CN(C)C[C@@H]34)cc2F)c(Cl)nc2ncnn12" has what recorded Cmax?
Reply: 496
